src = patent US20210380703A1

Target: T1, biotinylated goat anti-human kappa light chain
T1 construct: positive control of the ELISA
Assay: ELISA, positive control; note: test concentration or dose not given here
Description: The binding of ACVR2A-specific monoclonal antibodies to human ACVR2A, mouse ACVR2A, biotinylated goat anti-human kappa light chain (positive control) and human Fc (negative control) were determined by ELISA.
# optical density listing for each entry below
experimental-endpoint: optical density

INSERT INTO measurements (binder, readout_value) VALUES
  ('368_A03 (antibody, V domains shown, Group III) VH: EVQLLESGGGLVQPGGSLRLSCAASGFTFSSYSMNWVRQAPGKGLEWVSGINYNGGYTGYADSVKGRFTISRDNSKNTLYLQMNSLRAEDTAVYYCARGANWHDTHLDYWGQGTLVTVSS VL: DIQMTQSPSSLSASVGDRVTITCRASQSIISYLNWYQQKPGKAPKLLIYAVTSRASGVPSRFSGSGSGTDFTLTISSLQPEDFATYYCQQSYENPLTFGGGTKVEIK', '3.41 OD'),
  ('370_B11 (antibody, V domains shown, Group III) VH: EVQLLESGGGLVQPGGSLRLSCAASGFTFDSYSMNWVRQAPGKGLEWVSGINYNSGYTSYADSVKGRFTISRDNSKNTLYLQMNSLRAEDTAVYYCARGANWHDTHLDYWGQGTLVTVSS VL: DIQMTQSPSSLSASVGDRVTITCRASQSILSYLNWYQQKPGKAPKLVIYAATSRHSGVPSRFSGSGSGTDFTLTISSLQPEDFATYYCQQGYDLPLTFGGGTKVEIK', '3.69 OD');
